Target: UFC1; further: test concentration or dose not given here
Assay: reporter assay of Huesken 2005
Settings: siRNA
Oligonucleotides are written 5' to 3', each unit as a sugar letter and its base; * is a phosphorothioate linkage, no mark a phosphodiester; rarer units and linkages stand in square brackets, end groups in braces. Plain capitals give the bases only. d = 2'-deoxy (DNA); r = 2'-OH (RNA)
Measured Property: normalised inhibition (eCFP-eYFP dual reporter) (%)
Entry rule: numbers only, all in %.

Solved entries (count: 2):
> print(dat)
                                  substance  measured.result
1  sense rArArGrArUrGrUrArCrArGrGrGrGrUrGrGrCrAdTdT / antisense rUrGrCrCrArCrCrCrCrUrGrUrArCrArUrCrUrUdTdG             62.3
2  sense rCrCrUrGrArGrCrUrGrGrArUrGrGrArArArGrAdTdT / antisense rUrCrUrUrUrCrCrArUrCrCrArGrCrUrCrArGrGdAdA              120

Query substance follows.
Can you look up the measured normalised inhibition (eCFP-eYFP dual reporter) of sense rCrGrArGrUrUrUrGrArCrArUrUrCrCrUrArUrCdTdT / antisense rGrArUrArGrGrArArUrGrUrCrArArArCrUrCrGdAdT for me? 95.7
